Values from the nanobody polyreactivity screen of Harvey et al. (2022)

- ASSAY METHOD TEXT: yeast display, Sf9 membrane polyspecificity reagent, FACS + sequencing; frameworks hold sequencing errors
READOUT NAME: polyreactivity (PSR sort gate)

The examples below pair each entry with its known result.
>  <ORDERED RESIDUES>
QVQHVESGGGLVQAGGSLRLSCAASGRIFGVYVMGWYRQAPGKERELVAAITGGGSTYYADSVKGRFTISRDNAKNTVYLQMNSLKPEDTAVYYCAARYLVTYGHQQRYYYWGQGTQVTVSS

>  <REPORTED VALUE>
high polyreactivity

$$$$
>  <ORDERED RESIDUES>
QVQLVESGGGLVQAGGSLRLSCAASGSIFTPYAMGWYRQAPGKERELVAAISRSGGSTYYADSVKGRFTISRDNAKNTVYLQMNSLKPEDTAVYYCAVVVYDIYGYESDYWGQGTQVTVSS

>  <REPORTED VALUE>
low polyreactivity

$$$$
>  <ORDERED RESIDUES>
QVQLVESGGGLVQAGGSLRLSCAASGRTFVHNDMGWYRQAPGKERQLVAAINVSDGSTYYADSVKGRFTISRDNAKNTVYFQMNSLKPEDTAVYYCAKASYIIFRFEYRSGYDYWGQGTQVTVSS

>  <REPORTED VALUE>
low polyreactivity

$$$$
>  <ORDERED RESIDUES>
KVQLVESGGGLVQAGGSLRLSCAPSGRIFQPNVMGWYRQPPGKVRELAAAIRSVSSTYYADSVKGRFTISRDNAKNSVYLQMNSLKPEDTAVYYCAARLFLRGYTRGNYLGQGTQVTVSS

>  <REPORTED VALUE>
high polyreactivity

$$$$

# ---- query sequence ----
The value of polyreactivity (PSR sort gate) measured for the sequence `QVQLVESGGVLVQAGGSLRLSCAASGIIFVYNPMGWYRPAPGKERELVAGISWNGVSTYYADSVKWRFTISRDYAKYTVYLQMNSLKPEDTAVYYCAASLWVYVGQARYLWYDYWGQGTQVTVSS` turned out to be low polyreactivity

###

- ASSAY METHOD TEXT: yeast display, Sf9 membrane polyspecificity reagent, FACS + sequencing; frameworks hold sequencing errors
READOUT NAME: polyreactivity (PSR sort gate)

>  <ORDERED RESIDUES>
QFQLVESGGGLVQAGGSLRLSCAASGSTFVWNAMGWYRPAPGKERELVAAITNDGRTNYADSVKGRFTISRDNAKNTVYLKMNSLKPEDTAVYYCNADGYNSYWWNYYWGQGTQVTVSS

>  <polyreactivity (PSR sort gate)>
low polyreactivity

$$$$
>  <ORDERED RESIDUES>
QVQHVESGGGIVHAGGSLRLSCAASGSIFTRYTMGWDRMATGKERELVAVISDSSGRTYYADSVKGRFTISRDNAKNTFYLQLNSLKPADTAVYYCAAEYSDIYEYWGQGTQVTVSS

>  <polyreactivity (PSR sort gate)>
low polyreactivity

$$$$
>  <ORDERED RESIDUES>
QVQLVESGGGLVQAGGSLRLSCAASGSIFYVNAMGWYRQAPGKEREFVADITWSSGGRTYYADSVKGRFTISRDNAKNTVYLQMNSLKPDDTAVYYCAAPRYYYYSYDYWGQGTQVTVSS

>  <polyreactivity (PSR sort gate)>
high polyreactivity

$$$$
>  <ORDERED RESIDUES>
QVQLVESGGGLVQAGGSLRLSCAASGYIFKHYAMGWYIQAPGKERELVAAITSGGRTNYADSVKGRFTISRDNAKNTVFLQMNSLIPEDTAVYYCAARRYRYFDGTVPLDYWGQGTLVTVSS

>  <polyreactivity (PSR sort gate)>
high polyreactivity

$$$$
>  <ORDERED RESIDUES>
QVQLVESGVGLVQAGGSLRLSCAASGIIFLENAMGWYRQAPGKERELVAGISSGGNTNYADSVKGRFTISRDNAKNTDYLQMNSLKPEDTAVYYCNTDWYLPRYVLLGYFSGTEDSWGQGTQVTVSS

>  <polyreactivity (PSR sort gate)>
low polyreactivity

$$$$
>  <ORDERED RESIDUES>
QVQLVESGGGLVQAGGSIRLSCAASGRIFVRNAMGWYRQAPGKEREMVAAISWSSGGTYYADSVKGRFTISRDNAKNTVYLQMNSLKPEDTAVYYCNADPSRAGDYWGQGTQVTVSS

>  <polyreactivity (PSR sort gate)>
low polyreactivity

$$$$
>  <ORDERED RESIDUES>
QVQLVESGGGLVQAGGSLRLSCAASGFIFVYYAMVWYRQAPGKERELVAAITLRGGSTNYADSVKGRFTISRDNAKNTVYLQMNSRKPEDTAVYYCAAYSVWGGSYLALDYWGQGTQVTVSS

>  <polyreactivity (PSR sort gate)>
low polyreactivity

$$$$
>  <ORDERED RESIDUES>
QVQLVESGGGLVQAGGSLRLSCAASGFTFSYYAMGWYRQATGKETELVAGIDYSGGSTYYADSVKGRFTISRDNAKNTVYLQMNCLKPEDTAVYYCNAVYARIYYYSHGYDYWGQGTQVTVSS

>  <polyreactivity (PSR sort gate)>
high polyreactivity

$$$$

The value of polyreactivity (PSR sort gate) measured for the sequence `QVQLVESGGGLVQAGGSLRLSCAASGFTFIRYAMGWYRQAPGKERELVATISRSGGRTYYADSVKGRFTISRDNAKNTVYLQMNSLKPEDTAVYYCNAEAIVLNGGGYWGQGTQVTVSS` turned out to be high polyreactivity

The value of polyreactivity (PSR sort gate) measured for the sequence `QVQLVESGGGLVQAGGSLRLSCAASGFIFGLYAMGWYRQAPGKERELVATISWDGGSTYYADSVKGRFTISRDYAKNTVYLQMNSLKPEDTAVYYCAATYLYRSPYVPMDYWGQGTQVTVSS` turned out to be low polyreactivity

The value of polyreactivity (PSR sort gate) measured for the sequence `QVQLVESGGGLVQAGGSLRLSCAASGNIFVAYAMGWYRQAPGKERELVAAITYNGGRTYYADSVKGRFTISRDNAKNTVYLQMNSLKPEDTAVYYCAARGYNPYGRKVGYWGQGTQVTVSS` turned out to be high polyreactivity

###

- ASSAY METHOD TEXT: yeast display, Sf9 membrane polyspecificity reagent, FACS + sequencing; frameworks hold sequencing errors

>  <ORDERED RESIDUES>
QVQLVESGGGLVQAGGSLRLSCAASGRTFYFNAMGWYRQAPGKERELVATITRRGGSTSYADSVKGRFTISRDNAKNTVYLQMNSLKPEDTAVYYCGNVSPPKFPERFDYWGQGTQVTVSS

>  <polyreactivity (PSR sort gate)>
low polyreactivity

$$$$
>  <ORDERED RESIDUES>
QVQLVESGGGIVQAGGSLRLSCAASGITFGRNTMGWYRQAPGKERELVAAIDSGGNTYADSVKGRFTISRDNAKNTVYLQMNSLKPEDTAVYYCAVDGGEFSSYGYWGQGTQVTVSS

>  <polyreactivity (PSR sort gate)>
low polyreactivity

$$$$

###

- ASSAY METHOD TEXT: yeast display, Sf9 membrane polyspecificity reagent, FACS + sequencing; frameworks hold sequencing errors
READOUT NAME: polyreactivity (PSR sort gate)

The examples below pair each entry with its known result.
>  <ORDERED RESIDUES>
QVQLVESGGGLVQAGGSLRLSCAASGLILRKYAMGWYRQAPGKEREFVAAITQTGSRTYYADSVKGRFTISRDNAKNPVYLQMNSLKPEDTAVYYCAADLPRWGSYGYGKMDHWGQGTQVTVSS

>  <REPORTED VALUE>
high polyreactivity

$$$$
>  <ORDERED RESIDUES>
QVQLVESGGGLVQAGGILRLSCAASGIIYQRNAMGCYRQAPGKERQLVASITAGGDTTYYADSVKGRFTISRDNAKNTVYLQMNSLKPEDTAVYYCAVDSWLDDDDSYPDSILVDYWGQGTQVTVSS

>  <REPORTED VALUE>
low polyreactivity

$$$$
>  <ORDERED RESIDUES>
QVQLVESGGGLVQAGGSLRLSCAASARTFSAYAMGWYRPAPGKERELVARITSVDSTNYADSVKGRFTISRDNAKNTVYLQMNSLKPEDTAVYYCNATFGYPFVDYDDYWGQGTQVTVSS

>  <REPORTED VALUE>
low polyreactivity

$$$$
>  <ORDERED RESIDUES>
QVQLVESGGGLFQAGGSLRLSCAASGFIFTGYAMGWYRQAPGKASELVAVISYSAGSTYYADSVKGRFTISRDNAKNTVYLQMNSLKPEDTAVYYCAADHGKNLTYDYWGQGTQVTVSS

>  <REPORTED VALUE>
high polyreactivity

$$$$
>  <ORDERED RESIDUES>
QVQLEESGGGLVQAGGSLRLSCAASGSIFYEYAMGLYRTAPGKERVFVAAISSRGGYTNYADSVKGRFTISRDNAKNTVYLQMNSLKPEDTAVYYWAGYGGLQSRYYYWGLGTQVTVSS

>  <REPORTED VALUE>
high polyreactivity

$$$$
>  <ORDERED RESIDUES>
QVQLVESGGGLVQAGGSLRLSCAASGSIFSSNAMGWYRPAPGKERELVAAITSGGSTTYADSVKGRFTISRDNAKNTVYLQMNSLKPEDTAVYYCNARNYYYPSDRDYWGQGTQVTVSS

>  <REPORTED VALUE>
low polyreactivity

$$$$

The value of polyreactivity (PSR sort gate) measured for the sequence `QVQLVESGGGLVQAGGSLRLSCAASGSTFNYYAMGWYRQAPGKERELVAGITWRGRTYYADSVKGRFTISRDNAKNTVYLQMNSLKPEDTAVYYCAARQGTYGYWGQGTQVTVSS` turned out to be high polyreactivity

The value of polyreactivity (PSR sort gate) measured for the sequence `QVQLLESGGGLVQAGGSLRLSCAASGSTIRVNGMGWYRQAPGKERELVAVISWSGGSTYYADSVKGRFTISRDNAKNTVYLQMNSLKPEDTAVYYCNKLIYDEDEYWGQGTQVSVSS` turned out to be high polyreactivity

The value of polyreactivity (PSR sort gate) measured for the sequence `QVQLVESGGGLVQAGGSLRLSCAASGRTFYYYAMGWYRQAPGKEREFVASISYSGARTYYADSVKGRFTISRDNAKNTVYLQMNSLKPEETAVYYCAAGYPLGGDYWGQGTQVTVSS` turned out to be high polyreactivity

The value of polyreactivity (PSR sort gate) measured for the sequence `QVQLVESGGGLVQAGGSLRLICAASGFTFSYYAMGWSRQAPGKERELVAANSWSGTSTYYADSVKGRFTISRDNAKNTVYLQMNSLKPEDTAVYYCAAGYSASRKVDYRGQGTQVTVSS` turned out to be high polyreactivity

The value of polyreactivity (PSR sort gate) measured for the sequence `QVQLVESGGGLVQAGGSLRLSCAASGSTFVYYAMGWYRQAPGKERELVATINYNGGSTSYADSVKGRFTISRDNAKNTVYLQMNSLKPEDTAVYYCAKDRYYTWGDYWGQGTQVTVSS` turned out to be low polyreactivity
